Assay: Aqueous solubility of the compound by UV-spectrophotometry
Type: physicochemical
For each record, write down the corresponding solubility.
Give bare numbers, in µg/mL.

Use the examples below as a reference point.
INSERT INTO measurements (molecule, unit_spec, reported_value) VALUES
  ('Cc1ncc([N+](=O)[O-])n1CC(O)Cn1cc(C(=O)O)c(=O)c2cc(F)c(Cl)cc21 (stereo not given)', 'µg/mL', 430),
  ('Cc1ncc([N+](=O)[O-])n1CC(O)Cn1cc(C(=O)O)c(=O)c2ccc(C(F)(F)F)cc21 (stereo not given)', 'µg/mL', 790),
  ('Cc1ccc2c(c1)c(=O)c(C(=O)O)cn2CC(O)Cn1c([N+](=O)[O-])cnc1C (stereo not given)', 'µg/mL', 390),
  ('Cc1ncc([N+](=O)[O-])n1CC(O)Cn1cc(C(=O)O)c(=O)c2cccc(F)c21 (stereo not given)', 'µg/mL', 390);

Field: next molecule
Find the recorded solubility belonging to Cc1ncc([N+](=O)[O-])n1CC(O)Cn1cc(C(=O)O)c(=O)c2cc(Cl)cc(Cl)c21 (stereo not given) and report it.
350

====

Test system: Escherichia coli
Experiment: Antibacterial activity against Escherichia coli DH52 by two-fold serial dilution method
Assay type: functional
measurement_kind: MIC
Answer with the figure and its unit, nothing else.

Here is how some compounds turned out for MIC.
INSERT INTO measurements (compound, measurement_kind, reported_value) VALUES
  ('Cc1ncc([N+](=O)[O-])n1CC(O)Cn1cc(C(=O)O)c(=O)c2ccc(C(F)(F)F)cc21 (configuration not stated)', 'MIC', '0.5 µg/mL'),
  ('CCOC(=O)c1cn(CC(O)Cn2cnc([N+](=O)[O-])c2)c2c(F)cccc2c1=O (racemic)', 'MIC', '32 µg/mL'),
  ('O=C(O)c1cn(CC(O)Cn2cnc([N+](=O)[O-])c2)c2cc(Cl)c(F)cc2c1=O (configuration not stated)', 'MIC', '32 µg/mL'),
  ('CCOC(=O)c1cn(CC(O)Cn2c([N+](=O)[O-])cnc2C)c2ccc(C)cc2c1=O (racemic)', 'MIC', '4 µg/mL'),
  ('CCOC(=O)c1cn(CC(O)Cn2c([N+](=O)[O-])cnc2C)c2cc(C(F)(F)F)ccc2c1=O (racemic)', 'MIC', '2 µg/mL'),
  ('CCOC(=O)c1cn(CC(O)Cn2cnc([N+](=O)[O-])c2)c2c(Cl)cc(Cl)cc2c1=O (racemic)', 'MIC', '16 µg/mL');

Turning now to a further record.
Suppose we examine the compound Cc1ncc([N+](=O)[O-])n1CC(O)Cn1cc(C(=O)O)c(=O)c2cc(Cl)cc(Cl)c21 (configuration not stated) ; what MIC value has been reported?
32 µg/mL

====

For each entry below, report its MIC value.
Test system: Escherichia coli
Assay: Antibacterial activity against Escherichia coli DH52 by two-fold serial dilution method
Format: functional
Give bare numbers, in µg/mL.

Some compounds with recorded MIC:
INSERT INTO measurements (compound, measurement_kind, unit_spec, reported_value) VALUES
  ('CCOC(=O)c1cn(CC(O)Cn2c([N+](=O)[O-])cnc2C)c2ccc(OC)cc2c1=O (racemic)', 'MIC', 'µg/mL', 8),
  ('O=C(O)c1cn(CC(O)Cn2cnc([N+](=O)[O-])c2)c2c(F)cccc2c1=O (centres undefined)', 'MIC', 'µg/mL', 4),
  ('CCOC(=O)c1cn(CC2CO2)c2ccc(OC)cc2c1=O (racemic)', 'MIC', 'µg/mL', 16),
  ('CCOC(=O)c1cn(CC(O)Cn2c([N+](=O)[O-])cnc2C)c2cc(Cl)c(F)cc2c1=O (racemic)', 'MIC', 'µg/mL', 64);

Batch lookup, MIC per entry.
1. Cc1ncc([N+](=O)[O-])n1CC(O)Cn1cc(C(=O)O)c(=O)c2cccc(F)c21 (centres undefined)
2. CCOC(=O)c1cn(CC(O)Cn2c([N+](=O)[O-])cnc2C)c2ccc(F)cc2c1=O (racemic)
3. CCOC(=O)c1cn(CC(O)Cn2cnc([N+](=O)[O-])c2)c2ccc(C)cc2c1=O (racemic)
4. Cc1ncc([N+](=O)[O-])n1CC(O)Cn1cc(C(=O)O)c(=O)c2cc(F)cc(F)c21 (centres undefined)
5. Cc1ncc([N+](=O)[O-])n1CC(O)Cn1cc(C(=O)O)c(=O)c2cc(F)c(Cl)cc21 (centres undefined)

4
8
8
4
2

====

Provide the reported log10 MIC of each item.
Tested on: Escherichia coli
Test: Antibacterial activity against Escherichia coli DH52 by two-fold serial dilution method
Format: functional
On a log10 scale: recorded MIC, unit µg/mL.

INSERT INTO measurements (molecule, reported_value) VALUES
  ('O=C(O)c1cn(CC(O)Cn2cnc([N+](=O)[O-])c2)c2c(F)cc(F)cc2c1=O (stereo not drawn)', 1.51);

Batch request: log10 MIC for each of the following molecules.
1. CCOC(=O)c1cn(CC(O)Cn2cnc([N+](=O)[O-])c2)c2c(F)cc(F)cc2c1=O (racemic)
2. COc1ccc2c(c1)c(=O)c(C(=O)O)cn2CC(O)Cn1c([N+](=O)[O-])cnc1C (stereo not drawn)
3. CCOC(=O)c1cn(CC(O)Cn2cnc([N+](=O)[O-])c2)c2cc(Cl)c(F)cc2c1=O (racemic)
4. CCOC(=O)c1cn(CC(O)Cn2cnc([N+](=O)[O-])c2)c2cc(C(F)(F)F)ccc2c1=O (racemic)
5. O=C(O)c1cn(CC(O)Cn2cnc([N+](=O)[O-])c2)c2ccc(F)cc2c1=O (stereo not drawn)
6. Cc1ncc([N+](=O)[O-])n1CC(O)Cn1cc(C(=O)O)c(=O)c2cc(F)ccc21 (stereo not drawn)
7. Cc1ccc2c(c1)c(=O)c(C(=O)O)cn2CC(O)Cn1cnc([N+](=O)[O-])c1 (stereo not drawn)

1. 0.90
2. 1.81
3. 1.51
4. 2.11
5. 0.90
6. 0.90
7. 1.20

// batch mode: one log10 MIC value per listed entry
1. CCOC(=O)c1cn(CC2CO2)c2cc(Cl)c(F)cc2c1=O (racemic)
2. CCOC(=O)c1cn(CC(O)Cn2cnc([N+](=O)[O-])c2)c2ccc(OC)cc2c1=O (racemic)
3. COc1ccc2c(c1)c(=O)c(C(=O)O)cn2CC(O)Cn1cnc([N+](=O)[O-])c1 (stereo not drawn)
4. Cc1ccc2c(c1)c(=O)c(C(=O)O)cn2CC(O)Cn1c([N+](=O)[O-])cnc1C (stereo not drawn)

1: 1.81; 2: 0.30; 3: 1.81; 4: 0.00

Required: log10 MIC, one value per molecule below.
1. O=C(O)c1cn(CC(O)Cn2cnc([N+](=O)[O-])c2)c2c(Cl)cc(Cl)cc2c1=O (stereo not drawn)
2. CCOC(=O)c1cn(CC(O)Cn2c([N+](=O)[O-])cnc2C)c2c(F)cccc2c1=O (racemic)
3. CCOC(=O)c1cn(CC(O)Cn2c([N+](=O)[O-])cnc2C)c2c(Cl)cc(Cl)cc2c1=O (racemic)
4. CCOC(=O)c1cn(CC(O)Cn2cnc([N+](=O)[O-])c2)c2ccc(F)cc2c1=O (racemic)
5. O=C(O)c1cn(CC(O)Cn2cnc([N+](=O)[O-])c2)c2cc(C(F)(F)F)ccc2c1=O (stereo not drawn)
6. CCOC(=O)c1cn(CC(O)Cn2c([N+](=O)[O-])cnc2C)c2c(F)cc(F)cc2c1=O (racemic)

[0.90, 1.20, 1.20, 1.20, 0.30, 0.60]

====

System: Pichia norvegensis
Experiment: Antifungal activity against Candida mycoderma after 24 hrs by microbroth dilution method
Assay type: functional
measurement_kind: MIC (µg/mL)
Give bare numbers, in µg/mL.

Below are worked cases with known answers.
INSERT INTO results (compound, test_target, measurement_kind, reported_value) VALUES
  ('CCOC(=O)c1cn(CC(O)Cn2c([N+](=O)[O-])cnc2C)c2cc(C(F)(F)F)ccc2c1=O (racemic)', 'Pichia norvegensis', 'MIC', 32),
  ('Cc1ccc2c(c1)c(=O)c(C(=O)O)cn2CC(O)Cn1cnc([N+](=O)[O-])c1 (centres undefined)', 'Pichia norvegensis', 'MIC', 64),
  ('Cc1ncc([N+](=O)[O-])n1CC(O)Cn1cc(C(=O)O)c(=O)c2cc(F)cc(F)c21 (centres undefined)', 'Pichia norvegensis', 'MIC', 128);

Requested field: MIC. Item: CCOC(=O)c1cn(CC(O)Cn2c([N+](=O)[O-])cnc2C)c2ccc(OC)cc2c1=O (racemic)
256
